// data source = PubChem BioAssay (NCI)

tested on: MDA-MB-468 breast; test: NCI-60 one-dose screen, 48 h (100 = growth as untreated, 0 = no growth, -100 = all killed); settings: 10 µM unless noted
The panel holds about 83,000 compounds, 20% with a hit somewhere; the sample as a whole holds those more often.
Mark label 1 only when growth stays strictly below 40%. Values equal to the cut-off are label 0.

- Compound: "C=CCN(CC=C)C(=O)[C@H](CC)[C@@H]1CC[C@@H](C)[C@@H]([C@H](C)[C@@H](O)[C@@H](C)C(=O)[C@H](CC)C2O[C@]3(C=CC(=O)[C@]4(CC[C@@](C)([C@H]5CC[C@](O)(CC)[C@H](C)O5)O4)O3)[C@H](C)C[C@@H]2C)O1 (stereo partly specified)"
  Target system: "MDA-MB-468 breast"
  Answer label: "label 1"
- Compound: "CCc1ccccc1-n1c(-c2ccc(Cl)cc2)cc(-c2ccc(Cl)cc2)c(C#N)c1=O"
  Target system: "MDA-MB-468 breast"
  Answer label: "label 0"
- Compound: "O=c1[nH]c(-c2ccccn2)nc2sc3c(c12)CCCCCC3"
  Target system: "MDA-MB-468 breast"
  Answer label: "label 1"
- Compound: "CCCCCCCCn1ccc2cc(NC(=O)Cn3cc(CN4CCOCC4)nn3)ccc21"
  Target system: "MDA-MB-468 breast"
  Answer label: "label 0"
- Compound: "N#Cc1nn(-c2cc(=O)[nH]c3ccc(Br)cc23)c(N)c1C#N"
  Target system: "MDA-MB-468 breast"
  Answer label: "label 0"
- Compound: "O=C(NCc1cn(Cc2cccc(Oc3ccccc3)c2)nn1)c1cccnc1NCc1ccc(Cl)cc1"
  Target system: "MDA-MB-468 breast"
  Answer label: "label 1"
- Compound: "Cc1nc2cc(Nc3nc(Nc4ccc(F)cc4)nc(N4CCCC4)n3)ccc2n1Cc1ccccc1"
  Target system: "MDA-MB-468 breast"
  Answer label: "label 1"
- Compound: "O=c1ccc2cc3ccccc3cc2[nH]1"
  Target system: "MDA-MB-468 breast"
  Answer label: "label 0"
- Compound: "COc1ccc(C2CC(c3ccc(OC)cc3O)=NN2c2ccc(S(N)(=O)=O)cc2)cc1 (stereo unspecified)"
  Target system: "MDA-MB-468 breast"
  Answer label: "label 0"
- Compound: "N#CC1=C(N)n2nc(-c3ccncc3)nc2NC1c1cccc2ccccc12 (stereo unspecified)"
  Target system: "MDA-MB-468 breast"
  Answer label: "label 0"
- Compound: "O=CNCCc1ccccc1"
  Target system: "MDA-MB-468 breast"
  Answer label: "label 0"
- Compound: "CN(C)c1ccc(-c2c(C#N)c(N)nn2C(=O)c2ccc(NC(=O)c3ccccn3)cc2)cc1"
  Target system: "MDA-MB-468 breast"
  Answer label: "label 0"
- Compound: "CC1=NC(=S)NC(c2ccccc2)/C1=C1/CC(c2ccccc2O)NN1 (stereo unspecified)"
  Target system: "MDA-MB-468 breast"
  Answer label: "label 0"
- Compound: "COc1ccc(C(=O)c2cc3c(N)c(C(=O)Nc4ccc(C)cc4)sc3nc2C)cc1"
  Target system: "MDA-MB-468 breast"
  Answer label: "label 1"
- Compound: "O=C(CSc1nnc(Cc2ccccc2Nc2c(Cl)cccc2Cl)n1-c1ccccc1)N1N=C(c2ccc3ccccc3c2)CC1c1ccc(Cl)cc1 (stereo unspecified)"
  Target system: "MDA-MB-468 breast"
  Answer label: "label 0"
- Compound: "CCOC(=O)c1c(-c2cc(OC)c(OC)c(OC)c2)csc1N"
  Target system: "MDA-MB-468 breast"
  Answer label: "label 0"
- Compound: "COC(=O)C(CC(=O)c1ccc(-c2ccccc2)cc1)c1ccccc1 (stereo unspecified)"
  Target system: "MDA-MB-468 breast"
  Answer label: "label 0"
- Compound: "CC(C)(C)c1nn(-c2ccccc2)c2c1C(=O)CSC(c1ccccc1Cl)N2 (stereo unspecified)"
  Target system: "MDA-MB-468 breast"
  Answer label: "label 1"
- Compound: "Cc1cc(C)c2c(c1)N(C)c1ncnc(-n3cnc4cc(C)ccc43)c1CC2C (stereo unspecified)"
  Target system: "MDA-MB-468 breast"
  Answer label: "label 1"
- Compound: "Cc1ccccc1NC(=O)N/C(N)=N/c1nc2ccccc2s1"
  Target system: "MDA-MB-468 breast"
  Answer label: "label 1"

* * *

Reported growth values follow for various compounds
system: OVCAR-3 ovarian; assay: NCI-60 one-dose screen, 48 h (100 = growth as untreated, 0 = no growth, -100 = all killed); details: 10 µM
About 83,000 compounds went through this panel and 20% of them were active in at least one assay; those are over-represented in the sample as a whole.
Metric name: growth (%)

- Line notation: "O=C(c1ccccc1)c1ccc2nc(-c3ccccc3Br)[nH]c2c1"
  Unit info: "%"
  Quantitative result: -80.3
- Line notation: "O=C(Nc1ccc(Oc2ncnc3scc(Nc4n[nH]c(=S)s4)c23)cc1)C1(C(=O)Nc2cccc(C(F)(F)F)c2)CC1"
  Unit info: "%"
  Quantitative result: 104
- Line notation: "COc1ccc(Cn2cc(C#N)c(N)c2C(C)=O)c(OC)c1"
  Unit info: "%"
  Quantitative result: 105
- Line notation: "COc1ccc(OC)c(-n2cc(C#N)c(N)c2C(=O)c2ccc(Cl)cc2Cl)c1"
  Unit info: "%"
  Quantitative result: 23.5
- Line notation: "O=C(CN1CCN(c2ncnc3c2cnn3-c2ccccc2)CC1)Nc1ccc(Cl)cc1"
  Unit info: "%"
  Quantitative result: 51.8

* * *

tested on: MDA-MB-468 breast; assay: NCI-60 one-dose screen, 48 h (100 = growth as untreated, 0 = no growth, -100 = all killed); settings: 10 µM unless noted
Compounds without any hit were thinned out: in the full panel of roughly 83,000, 20% have a hit.

- Compound: "N#CC(I)CS(=O)(=O)c1ccccc1 (centres undefined)"
  growth [%]: 25
- Compound: "COc1ccc(Cn2cc3c(c2-c2cc(OC)c(OC)c(OC)c2)CCc2c(CN4CCOCC4)noc2-3)cc1"
  growth [%]: 45.5
- Compound: "CC(C)c1ccc2c(c1)CCC1C2CCCC1(C)NCc1ccccc1 (centres undefined)"
  growth [%]: -44.5
- Compound: "Cc1ccc(NC(=O)c2ccc(CN3CCN(C)CC3)c(I)c2)cc1Oc1ccc(-c2[nH]nc3ncnc(N)c23)cc1"
  growth [%]: 105
- Compound: "COc1ccc(/C=N/NC(=O)Cn2c(-c3ccc(S(C)(=O)=O)cc3)nc3cc(Cl)ccc32)cc1"
  growth [%]: -18.5
- Compound: "COc1cc(-c2nc3cc(Cl)c(Cl)cc3[nH]2)ccc1OCC(=O)N=Nc1c(O)[nH]c2ccc([N+](=O)[O-])cc12"
  growth [%]: 4.59
- Compound: "COc1cc(-c2nc3nc4sc(C)c(C)c4c(=O)n3[nH]2)cc(OC)c1OC"
  growth [%]: 75.5
- Compound: "COCCCOc1cc(C[C@@H](C[C@H](N)[C@@H](O)C[C@H](C(=O)NCC(C)(C)C(N)=O)C(C)C)C(C)C)ccc1OC"
  growth [%]: 101
- Compound: "O=C(Nc1cc(Cl)ccc1O)c1cccc(Nc2ccnc(C(F)(F)F)c2)c1"
  growth [%]: 16
- Compound: "NC1CCC(Nc2nc(NCc3cc(Cl)ccc3O)c3ncn(C4CCCC4)c3n2)CC1 (centres undefined)"
  growth [%]: -51
- Compound: "COc1c(Cl)cc(Cl)c2ccc(C=C3C(=O)N(C)C(=O)N(C)C3=O)nc12"
  growth [%]: 107
- Compound: "Cc1ccn2c(-c3csc(Nc4cccc(O)c4)n3)c(C)nc2c1"
  growth [%]: -33.1
- Compound: "Cc1ccc(S(=O)(=O)N2CCc3ccccc3CC2)cc1"
  growth [%]: -4.8
- Compound: "COc1ccc2[nH]cc(-c3nc(N)nnc3-c3cn(C)c4ccc(Br)cc34)c2c1"
  growth [%]: -31.3
- Compound: "Cc1c(NCC(=O)Nc2nc3ccccc3[nH]2)c(=O)n(-c2ccccc2)n1C"
  growth [%]: 106
- Compound: "O=c1[nH]c(CN2CCN(c3ccccc3)CC2)nc2c(Br)cc(Br)cc12"
  growth [%]: 114
- Compound: "COC(=O)/C(CCC=C(C)C)=C1\\[C@@H](OC(C)=O)C[C@@]2(C)[C@H]1C[C@@H](O)[C@H]1[C@@]3(C)CC[C@H](NCCO)[C@@H](C)[C@@H]3CC[C@@]12C"
  growth [%]: 104
- Compound: "O=C1/C(=C/c2ccc(OCCCOc3ccc(Cl)cc3)cc2)N=C2SCCCN12"
  growth [%]: 61.2
- Compound: "O=C(CNS(=O)(=O)Cc1ccccc1)NNc1ccccc1"
  growth [%]: 79.4

* * *

test system: HOP-62 NSCLC; assay: NCI-60 one-dose screen, 48 h; conditions: 10 µM
This is part of a sample that, as a whole, favours compounds with a hit. Of some 83,000 tested, about 20% had one in any assay. The source made the active and inactive calls. How the source made its calls: active means growth percent below 10; inactive means the rest.
Outcomes: yes (1) for active, no (0) for inactive

- Compound: "COc1cc(C2CC(c3ccc(Oc4ccc(Cl)cc4)cc3)=NN2c2nc(-c3ccc(Cl)cc3)c(C#N)c(N3CCOCC3)n2)cc(OC)c1OC (stereo not given)"
  Answer label: "no (0)"
- Compound: "Cn1cc(-c2nc(N)nnc2-c2c[nH]c3ccccc23)c2cc(Br)cnc21"
  Answer label: "no (0)"
- Compound: "CC(C)(C)c1cc(/C=C2\\S/C(=N/c3ncn[nH]3)NC2=O)cc(C(C)(C)C)c1O"
  Answer label: "no (0)"
- Compound: "C#C[C@]1(O)CC[C@H]2[C@@H]3CC=C4c5sc(Nc6ccc(N(C)C)cc6)nc5CC[C@]4(C)[C@H]3CC[C@@]21C"
  Answer label: "no (0)"
- Compound: "Cn1cc(-c2nnc(N)nc2-c2c[nH]c3ccc(F)cc23)c2cc(Br)cnc21"
  Answer label: "no (0)"
- Compound: "CCOC(=O)c1ccc(NC(=O)CSC(CC(=O)c2sc(Nc3ccccn3)nc2C)c2ccccc2F)cc1 (stereo not given)"
  Answer label: "yes (1)"
- Compound: "COc1ccc(NCc2cn(-c3ccc(C(=O)O)cc3)nc2-c2ccc(F)cc2)cc1C(F)(F)F"
  Answer label: "no (0)"
- Compound: "O=C(CC(=O)Nc1ccc(Oc2ncnc3scc(Nc4n[nH]c(=S)s4)c23)cc1)Nc1ccc(Cl)cc1"
  Answer label: "no (0)"
- Compound: "Cc1ccc2sc3c(c2c1)Oc1nc[nH]c(=O)c1C3c1cccc(F)c1 (stereo not given)"
  Answer label: "no (0)"
- Compound: "Cn1cc(-c2cc3nc(-c4c[nH]c5ccccc45)cc(N)n3n2)c2cc(Cl)ccc21"
  Answer label: "yes (1)"
- Compound: "COc1ccc(C(=O)COc2ccc(NC(=O)Nc3ccccc3)cc2)cc1"
  Answer label: "no (0)"
- Compound: "Cc1cc(N=C2NC(=O)/C(=C/c3cc(C(C)(C)C)c(O)c(C(C)(C)C)c3)S2)n[nH]1"
  Answer label: "yes (1)"
- Compound: "C#C[C@]1(O)CC[C@H]2[C@@H]3CC=C4c5sc(Nc6cc(C)cc(C)n6)nc5CC[C@]4(C)[C@H]3CC[C@@]21C"
  Answer label: "yes (1)"
- Compound: "O=[N+]([O-])c1cccc(-c2nnc3c(/C=C/c4ccccc4O)nc4ccccc4n23)c1"
  Answer label: "no (0)"
- Compound: "O=C1NC(=S)S/C1=C\\c1cn(-c2ccccc2)nc1-c1ccc([N+](=O)[O-])cc1"
  Answer label: "no (0)"
- Compound: "COc1ccc(C2OC[C@@]3(C)C4CC[C@]5(C)C(CC=C6C7CC(C)(C)CC[C@]7(C(=O)O)CC[C@]65C)[C@@]4(C)C[C@@H](O)[C@@H]3O2)cc1 (stereo not given in full)"
  Answer label: "no (0)"
- Compound: "O=C(c1ccc(F)cc1)C(c1c[nH]c2ccccc12)c1c[nH]c2ccccc12"
  Answer label: "no (0)"
- Compound: "O=C(Nc1ccc(OCC(=O)c2ccc(Cl)cc2)cc1)Nc1ccc(Cl)c(C(F)(F)F)c1"
  Answer label: "no (0)"
- Compound: "COC(=O)CNC(=O)COc1c(OC)c(OC)cc2oc(-c3cccc(C(=O)Nc4ccc(Cl)cc4)c3)cc(=O)c12"
  Answer label: "yes (1)"
- Compound: "O=C(c1ccccc1)c1ccc2nc(-c3ccccc3Br)[nH]c2c1"
  Answer label: "yes (1)"
- Compound: "O=C1NC2C=CC=CC2/C1=C1/SC(=S)N(C2CC(=O)N(c3ccc(Br)cc3)C2=O)C1=O (stereo not given)"
  Answer label: "no (0)"
- Compound: "CC1(C)CC(=O)C2=C(C1)N(Cc1ccc(C(=O)O)cc1)C1=C(C(=O)CC(C)(C)C1)C2c1ccc(Cl)cc1"
  Answer label: "no (0)"
- Compound: "Cc1cc(N=C2NC(=O)S/C2=C\\c2ccc(F)cc2)n[nH]1"
  Answer label: "no (0)"
- Compound: "Cn1cc(/C=C(/SS/C(=C/c2cn(C)c3cccc(C(=O)O)c23)C(=O)O)C(=O)O)c2c(C(=O)O)cccc21"
  Answer label: "no (0)"
- Compound: "O=C(Nc1ccc(OCc2ccc(F)cc2)cc1)Nc1ccc(Cl)c(C(F)(F)F)c1"
  Answer label: "no (0)"
- Compound: "COc1cc(-c2nc3ccc(C)cc3[nH]2)ccc1OCc1nnc(-c2ccccc2Br)o1"
  Answer label: "no (0)"
- Compound: "COc1ccc(C2c3sc4ccc(C)cc4c3Oc3nc(N)nc(N)c32)cc1 (stereo not given)"
  Answer label: "no (0)"
- Compound: "Fc1ccc(/C=C/c2nc3ccccc3n3c(-c4ccc(Cl)cc4)nnc23)cc1"
  Answer label: "no (0)"
- Compound: "C#CCOc1cc(N(CC)CC)ccc1C(C(=O)NC(C)(C)C)N(C(=O)C1CCc2cc(F)ccc2O1)c1ccc(F)cc1F (stereo not given)"
  Answer label: "no (0)"
- Compound: "COc1ccc(Cn2cc(C#N)c(N)c2C(C)=O)c(OC)c1"
  Answer label: "no (0)"
- Compound: "COc1ccc(Cc2nn(CC(=O)N/N=C/c3ccc([N+](=O)[O-])cc3)c(=O)c3c(C)noc23)cc1"
  Answer label: "no (0)"
- Compound: "Cn1cc(-c2nnc(N)nc2-c2c[nH]c3ccccc23)c2cc(Br)cnc21"
  Answer label: "no (0)"
- Compound: "COc1cccc(O)c1/C=C1\\SCc2cc3c(OC)cccc3[o+]c21"
  Answer label: "no (0)"
- Compound: "O=C(c1ccc(Cl)cc1)C(c1c[nH]c2ccccc12)c1c[nH]c2ccccc12"
  Answer label: "no (0)"
- Compound: "COc1cc2oc(-c3cccc(C(=O)Nc4ccc(Cl)cc4)c3)cc(=O)c2c(OCCN)c1OC"
  Answer label: "yes (1)"
